Where do these numbers come from? They come from the NIST ThermoML archive (doi:10.1021/je034208m).

- MEASUREMENT PARAMETERS: 298.15 K; 101.33 kPa; Liquid
VALUE TYPE: viscosity (mPa·s)
Reply numerically in mPa·s, unit not repeated.

Incoming: Recorded viscosity for CCCC(C)O (centres undefined) , please?
Outgoing: 3.273

Incoming: Likewise for CCCCCCCCCCCC ?
Outgoing: 1.327

Incoming: Likewise for CCCCCCCCCC ?
Outgoing: 0.845

Incoming: Likewise for CCCCCCCC ?
Outgoing: 0.506

====

Give measured mass density for each item. Keep answers brief.
- MEASUREMENT PARAMETERS: 303.15 K; 101.33 kPa; Liquid
Reply numerically in kg/m3, unit not repeated.

Incoming: Recorded mass density for CCCCCCCC , please?
Outgoing: 694.49

Incoming: Likewise for CCCCCCCCCCCC ?
Outgoing: 741.27

Incoming: Likewise for CCCCCCCCCC ?
Outgoing: 722.33

Incoming: Likewise for CCCC(C)O (centres undefined) ?
Outgoing: 800.9

====

- MEASUREMENT PARAMETERS: 303.15 K; 101.33 kPa; Liquid; Sing-around technique in a fixed-path interferometer
Numbers after ± are expanded uncertainties.
VALUE TYPE: speed of sound

Incoming: Recorded speed of sound for CCCCCCCCCCCC , please?
Outgoing: 1259 ± 1 m/s

Incoming: Likewise for CCCCCCCC ?
Outgoing: 1152 ± 1 m/s

Incoming: Likewise for CCCC(C)O (centres undefined) ?
Outgoing: 1214 ± 2 m/s

Incoming: Likewise for CCCCCCCCCC ?
Outgoing: 1215 ± 1 m/s

====

- MEASUREMENT PARAMETERS: 303.15 K; 101.33 kPa; Liquid
Numbers after ± are expanded uncertainties.
VALUE TYPE: viscosity
Provide the measurement as a number trailed by its unit.

Incoming: Recorded viscosity for CCCCCCCCCCCC [dodecane] , please?
Outgoing: 1.219 ± 0.02 mPa·s

Incoming: Likewise for CCCCCCCC [octane] ?
Outgoing: 0.478 ± 0.009 mPa·s

Incoming: Likewise for CCCC(C)O (centres undefined) [pentan-2-ol] ?
Outgoing: 2.708 ± 0.053 mPa·s

Incoming: Likewise for CCCCCCCCCC [decane] ?
Outgoing: 0.787 ± 0.014 mPa·s

====

- MEASUREMENT PARAMETERS: 293.15 K; 101.33 kPa; Liquid
Give measured mass density for each item. Keep answers brief.
Reply numerically in kg/m3, unit not repeated.

Incoming: Recorded mass density for CCCCCCCCCCCC [dodecane] , please?
Outgoing: 748.54

Incoming: Likewise for CCCC(C)O (centres undefined) [pentan-2-ol] ?
Outgoing: 809.04

Incoming: Likewise for CCCCCCCC [octane] ?
Outgoing: 702.57

Incoming: Likewise for CCCCCCCCCC [decane] ?
Outgoing: 729.89

====

Give measured speed of sound for each item. Keep answers brief.
- MEASUREMENT PARAMETERS: 293.15 K; 101.33 kPa; Liquid; Sing-around technique in a fixed-path interferometer
Reply numerically in m/s, unit not repeated.

Incoming: Recorded speed of sound for CCCCCCCCCCCC , please?
Outgoing: 1297

Incoming: Likewise for CCCCCCCCCC ?
Outgoing: 1254

Incoming: Likewise for CCCCCCCC ?
Outgoing: 1193

Incoming: Likewise for CCCC(C)O (centres undefined) ?
Outgoing: 1250

====

Give measured viscosity for each item. Keep answers brief.
- MEASUREMENT PARAMETERS: 293.15 K; 101.33 kPa; Liquid
Reply numerically in mPa·s, unit not repeated.

Incoming: Recorded viscosity for CCCC(C)O (centres undefined) , please?
Outgoing: 4.001

Incoming: Likewise for CCCCCCCC ?
Outgoing: 0.538

Incoming: Likewise for CCCCCCCCCCCC ?
Outgoing: 1.454

Incoming: Likewise for CCCCCCCCCC ?
Outgoing: 0.911
